Ref: patent US20250333467A1

# measurement_target: T1, human RXFP1 (human, UniProt Q9HBX9 1-757)
# T1 sequence (looked up): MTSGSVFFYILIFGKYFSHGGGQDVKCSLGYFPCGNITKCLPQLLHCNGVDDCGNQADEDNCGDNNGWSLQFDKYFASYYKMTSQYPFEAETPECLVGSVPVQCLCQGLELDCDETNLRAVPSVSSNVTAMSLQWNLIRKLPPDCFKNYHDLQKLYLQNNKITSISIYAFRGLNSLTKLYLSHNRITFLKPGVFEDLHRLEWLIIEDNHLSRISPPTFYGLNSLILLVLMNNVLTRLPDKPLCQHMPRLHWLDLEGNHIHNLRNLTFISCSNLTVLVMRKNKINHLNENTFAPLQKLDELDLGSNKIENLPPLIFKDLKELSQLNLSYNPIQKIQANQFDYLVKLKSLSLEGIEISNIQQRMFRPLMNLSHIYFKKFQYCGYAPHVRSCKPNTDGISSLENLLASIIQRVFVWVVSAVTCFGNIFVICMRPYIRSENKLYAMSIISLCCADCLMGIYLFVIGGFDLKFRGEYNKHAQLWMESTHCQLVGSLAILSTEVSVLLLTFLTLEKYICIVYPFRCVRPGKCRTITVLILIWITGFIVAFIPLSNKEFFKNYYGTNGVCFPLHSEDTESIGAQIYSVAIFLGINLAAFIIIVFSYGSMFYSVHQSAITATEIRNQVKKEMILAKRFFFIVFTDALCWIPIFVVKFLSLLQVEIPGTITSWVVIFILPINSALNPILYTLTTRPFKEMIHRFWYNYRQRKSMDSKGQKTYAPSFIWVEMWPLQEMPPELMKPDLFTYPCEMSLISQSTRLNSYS
# assay_info: cell-based or functional assay
reported_endpoint: Transient HEK293 hRXFP1 cAMP EC50 (nM)
Expressed in nM, but write only the number.

Request: Please report the measured Transient HEK293 hRXFP1 cAMP EC50 for SEQ ID NO: 87 (Fc fusion) DKTHTCPPCPAPEAAGGPSVFLFPPKPKDTLMISRTPEVTCVVVDVSHEDPEVKFNWYVDGVEVHNAKTKPREEQYNSTYRVVSVLTVLHQDWLNGKEYKCKVSNKALAAPIEKTISKAKGQPREPQVYTLPPSRDELTKNQVSLTCLVKGFYPSDIAVEWESNGQPENNYKTTPPVLDSDGSFFLYSKLTVDKSRWQQGNVFSCSVLHEALHSHYTQKSLSLSPGKGGSDSWQEEVIKLCGRELVRAQIAICGKSTASDAAGAEAEAGARQLYSALANKCCHVGCTKRSLAQFC
Result: 8.7
